TGI overview
System: SF-295 CNS
Assay: NCI tumour cell line growth inhibition, 48 h

| COMPOUND | TGI |
| --- | --- |
| CC(C)n1nc(C#Cc2cccc(NC(=O)c3cccc(C(F)(F)F)c3)c2)c2c(N)ncnc21 | > 100 µM |
| Cc1cccc(CC(C)(C)C)c1NC(=O)C(=O)C(C(=O)c1ccc2ccccc2c1)C1OC(=O)c2ccccc21 (stereo unspecified) | 21.6 µM |
| CCNC(=O)Oc1ccc(/C(=C(\C)c2ccc(Cl)cc2)c2ccc(OCCN3CCCCC3)cc2)cc1 | 4.36 µM |
| CCCCCCCC(CC(=O)O)OC(=O)CC(CCCCCCC)OC1OC(C)C(O)C(O)C1OC1OC(C)C(O)C(O)C1O (stereo unspecified) | > 100 µM |
| O=C(Cc1nc2ccc([N+](=O)[O-])cc2[nH]c1=O)C(=O)Nc1cc(Cl)c(Cl)cc1Cl | > 100 µM |

Challenge: Look up and report measured TGI for this entry: `COc1cc(C(=O)/C=C/c2c(C(F)(F)F)nc3sccn23)cc(OC)c1OC`
Response given: 7.86 µM

Challenge: Look up and report measured TGI for this entry: CC(=O)OCC1OC(n2c3c(c(-c4ccco4)c(C#N)c2=S)CCCC3)C(OC(C)=O)C(OC(C)=O)C1OC(C)=O (stereo unspecified)
Response given: 21.5 µM

Challenge: Look up and report measured TGI for this entry: `C=CCOn1c(C=C)nc2c(C)cccc21`
Response given: 21 µM

---

Tested on: NCI/ADR-RES ovarian
Experiment: NCI tumour cell line growth inhibition, 48 h
TGI overview

| COMPOUND | EXPERIMENTAL TARGET | READOUT LABEL | RESULT |
| --- | --- | --- | --- |
| COc1cc(C2S/C(=C/c3ccccc3)C(=O)N2c2ccc(Cl)cc2)cc(OC)c1OC (stereo not given) | NCI/ADR-RES ovarian | TGI | > 100 µM |
| O=c1[nH]c(-c2ccccn2)nc2sc3c(c12)CCCCCC3 | NCI/ADR-RES ovarian | TGI | > 100 µM |
| O=[N+]([O-])c1cccc(-c2ncc(-c3ccc(Cl)cc3Cl)[nH]2)c1 | NCI/ADR-RES ovarian | TGI | > 83.3 µM |

Challenge: Look up and report measured TGI for this entry: `Cc1ccc(S(=O)(=O)NC(=O)NS(=O)(=O)O)cc1`
Response given: > 100 µM

Challenge: Look up and report measured TGI for this entry: CCOC(=O)C1=C(c2ccccc2)N(Cc2ccccc2)C2(O)C=CC(=O)C3C(=O)N(c4ccccc4)C(=O)C132 (stereo not given)
Response given: 17 µM

---

System: SN12C renal
Experiment: NCI tumour cell line growth inhibition, 48 h; in the data active = GI50 below about 0.43 µM; inactive = the rest
I would appreciate it if you answered using one of these outcomes: active, inactive

Recorded results for 3 molecules are shown here.
| MOLECULE | CLASS |
| --- | --- |
| Cc1cc(N)c2ccccc2[n+]1CCCCCCCCCC[n+]1c(C)cc(N)c2ccccc21 | active |
| COc1cc(/C=C\c2cccnc2Nc2ccccc2)cc(OC)c1OC | inactive |
| O=c1[nH]c2cc(O)ccc2n2cc3c(F)cccc3c12 | inactive |

# next molecule below
Challenge: # lookup: test call for `C[C@]12CC[C@@H]3c4ccc(O)cc4CC[C@H]3[C@@H]1CC[C@@H]2NS(=O)(=O)c1ccc(-c2ccccc2)cc1`
Response given: inactive
